# Organism: Rattus norvegicus
# Procedure text: Open TG-GATES - Regimen: Daily Repeat
# Type: toxicity, organism-based, Sprague-Dawley
# Parameters: regimen Daily Repeat, gender Male, age 6 weeks
# Test context: in vivo, po, 300 mg/kg, […], tissue Blood, route gavage, dose level Middle, time 7 day
The entries below are paired with their reported APTT.
Use s as the unit, but write only the number.

Example entries begin here.
>  <Smiles text>
COC(=O)C1=C(C)NC(C)=C(C(=O)OC)C1c1ccccc1[N+](=O)[O-]

>  <Unit descriptor>
s

>  <APTT>
15.7

$$$$
>  <Smiles text>
CCOc1ccc(NC(C)=O)cc1

>  <Unit descriptor>
s

>  <APTT>
17.4

$$$$
>  <Smiles text>
CN/C(=N/CCSCc1nc[nH]c1C)NC#N

>  <Unit descriptor>
s

>  <APTT>
19.2

$$$$
>  <Smiles text>
Cc1nnc2n1-c1ccc(Cl)cc1C(c1ccccc1Cl)=NC2

>  <Unit descriptor>
s

>  <APTT>
19.2

$$$$
>  <Smiles text>
CNC(=C[N+](=O)[O-])NCCSCc1ccc(CN(C)C)o1

>  <Unit descriptor>
s

>  <APTT>
20.6

$$$$

Here's the next entry for you.
Sure, the documented APTT for `O=C(OC[C@H]1O[C@@H](OC(=O)c2cc(O)c(O)c(OC(=O)c3cc(O)c(O)c(O)c3)c2)[C@H](OC(=O)c2cc(O)c(O)c(OC(=O)c3cc(O)c(O)c(O)c3)c2)[C@@H](OC(=O)c2cc(O)c(O)c(OC(=O)c3cc(O)c(O)c(O)c3)c2)[C@@H]1OC(=O)c1cc(O)c(O)c(OC(=O)c2cc(O)c(O)c(O)c2)c1)c1cc(O)c(O)c(OC(=O)c2cc(O)c(O)c(O)c2)c1` is 17.1
